# tgt: Recombinant MAPKAPK2 (Homo sapiens, UniProt P49137)
# Sequence (P49137 whole entry, species assumed): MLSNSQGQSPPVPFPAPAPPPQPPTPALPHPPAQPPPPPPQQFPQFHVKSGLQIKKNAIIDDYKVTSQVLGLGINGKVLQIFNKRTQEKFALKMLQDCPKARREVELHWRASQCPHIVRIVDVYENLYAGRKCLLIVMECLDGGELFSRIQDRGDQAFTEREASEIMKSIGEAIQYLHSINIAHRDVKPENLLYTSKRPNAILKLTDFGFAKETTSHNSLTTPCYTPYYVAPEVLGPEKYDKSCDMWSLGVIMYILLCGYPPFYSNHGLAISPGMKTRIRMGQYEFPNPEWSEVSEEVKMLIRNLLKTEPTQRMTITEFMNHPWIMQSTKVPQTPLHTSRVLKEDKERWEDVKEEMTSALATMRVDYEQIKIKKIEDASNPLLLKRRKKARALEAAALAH
# assay.explanation: Determination of MK-2 IC50 (HSP-peptide phosphorylation, anion exchange resin capture assay)
# Assay type: biochemical
# setup.conditions: MK-2 Avg. IC50, Table I, aminocyanopyridine MK-2 inhibitors
pIC50: −log10 of the molar value.
quantity: pIC50

compound: N#Cc1c(-c2ccco2)cc(-c2cccc(B(O)O)c2)nc1N
quantity: pIC50
reported.value: 3.90
--
compound: N#Cc1c(-c2ccco2)cc(-c2ccsc2)nc1N
quantity: pIC50
reported.value: 4.01
--
compound: C#CCOCC1Cc2c(nc(N)c(C#N)c2N)O1 (centres unmarked)
quantity: pIC50
reported.value: 3.98
--
compound: CC(C)OCC1Cc2c(nc(N)c(C#N)c2N)O1 (centres unmarked)
quantity: pIC50
reported.value: 3.90
--
compound: N#Cc1c(-c2ccco2)cc(-c2c[nH]c3ccccc23)nc1N [Example 119]
quantity: pIC50
reported.value: 3.92
--
compound: N#Cc1ccc(-c2ccco2)nc1N
quantity: pIC50
reported.value: 4.11
--
compound: N#Cc1c(-c2ccco2)cc(-c2ccc(O)cc2)nc1N
quantity: pIC50
reported.value: 3.91
--
compound: N#Cc1c(-c2ccc(C(F)(F)F)cc2)cc(-c2ccco2)nc1N
quantity: pIC50
reported.value: 3.97
